Assay: molar heat capacity at constant pressure
Conditions: 338.15 K; 101.33 kPa; Crystal; Large sample (1 g) DSC
reported endpoint: molar heat capacity at constant pressure (J/K/mol)

compound string | unit descriptor | molar heat capacity at constant pressure
O=c1ccn([C@H]2C[C@H](O)[C@@H](CO)O2)c(=O)[nH]1 | J/K/mol | 285.38
O=c1[nH]c(=O)n([C@H]2C[C@H](O)[C@@H](CO)O2)cc1I | J/K/mol | 303.48
O=c1[nH]c(=O)n([C@H]2C[C@H](O)[C@@H](CO)O2)cc1Br | J/K/mol | 282.38
O=c1[nH]c(=O)n([C@@H]2O[C@H](CO)[C@@H](O)[C@H]2O)cc1I | J/K/mol | 343.15
O=c1[nH]c(=O)n([C@@H]2O[C@H](CO)[C@@H](O)[C@H]2O)cc1Br | J/K/mol | 309.47
Cc1cn([C@H]2C[C@H](O)[C@@H](CO)O2)c(=O)[nH]c1=O | J/K/mol | 293.81

---

Assay: molar heat capacity at constant pressure
Conditions: 333.15 K; 101.33 kPa; Crystal; Large sample (1 g) DSC
reported endpoint: molar heat capacity at constant pressure (J/K/mol)

compound string | molar heat capacity at constant pressure / J/K/mol
O=c1[nH]c(=O)n([C@H]2C[C@H](O)[C@@H](CO)O2)cc1I | 301.22
Cc1cn([C@H]2C[C@H](O)[C@@H](CO)O2)c(=O)[nH]c1=O | 291.68
O=c1[nH]c(=O)n([C@@H]2O[C@H](CO)[C@@H](O)[C@H]2O)cc1I | 342.43
O=c1[nH]c(=O)n([C@H]2C[C@H](O)[C@@H](CO)O2)cc1Br | 279.66
O=c1[nH]c(=O)n([C@@H]2O[C@H](CO)[C@@H](O)[C@H]2O)cc1Br | 308.99
O=c1ccn([C@H]2C[C@H](O)[C@@H](CO)O2)c(=O)[nH]1 | 282.63

---

Assay: molar heat capacity at constant pressure
Conditions: 363.15 K; 101.33 kPa; Crystal; Large sample (1 g) DSC
reported endpoint: molar heat capacity at constant pressure (J/K/mol)

compound string | molar heat capacity at constant pressure / J/K/mol
O=c1[nH]c(=O)n([C@@H]2O[C@H](CO)[C@@H](O)[C@H]2O)cc1Br | 311.82
O=c1[nH]c(=O)n([C@H]2C[C@H](O)[C@@H](CO)O2)cc1I | 314.82
O=c1[nH]c(=O)n([C@@H]2O[C@H](CO)[C@@H](O)[C@H]2O)cc1I | 346.72
O=c1[nH]c(=O)n([C@H]2C[C@H](O)[C@@H](CO)O2)cc1Br | 295.95
O=c1ccn([C@H]2C[C@H](O)[C@@H](CO)O2)c(=O)[nH]1 | 299.1
Cc1cn([C@H]2C[C@H](O)[C@@H](CO)O2)c(=O)[nH]c1=O | 304.51

---

Test: molar heat capacity at constant pressure
Settings: 358.15 K; 101.33 kPa; Crystal; Large sample (1 g) DSC
reported endpoint: molar heat capacity at constant pressure (J/K/mol)

molecule | reported endpoint | unit descriptor | measured result
O=c1[nH]c(=O)n([C@H]2C[C@H](O)[C@@H](CO)O2)cc1Br [5-bromo-2'-deoxyuridine] | molar heat capacity at constant pressure | J/K/mol | 293.24
Cc1cn([C@H]2C[C@H](O)[C@@H](CO)O2)c(=O)[nH]c1=O [thymidine] | molar heat capacity at constant pressure | J/K/mol | 302.37
O=c1ccn([C@H]2C[C@H](O)[C@@H](CO)O2)c(=O)[nH]1 [2'-deoxyuridine] | molar heat capacity at constant pressure | J/K/mol | 296.36
O=c1[nH]c(=O)n([C@H]2C[C@H](O)[C@@H](CO)O2)cc1I [5-iodo-2'-deoxyuridine] | molar heat capacity at constant pressure | J/K/mol | 312.55
O=c1[nH]c(=O)n([C@@H]2O[C@H](CO)[C@@H](O)[C@H]2O)cc1Br [5-bromouridine] | molar heat capacity at constant pressure | J/K/mol | 311.35
O=c1[nH]c(=O)n([C@@H]2O[C@H](CO)[C@@H](O)[C@H]2O)cc1I [2,4-dihdroxy-5-iodo-1-β-D-ribofurnosylpyrimidine] | molar heat capacity at constant pressure | J/K/mol | 346.01

---

Experiment: molar heat capacity at constant pressure
Details: 313.15 K; 101.33 kPa; Crystal; Large sample (1 g) DSC
reported endpoint: molar heat capacity at constant pressure (J/K/mol)

compound string | measured result
O=c1[nH]c(=O)n([C@H]2C[C@H](O)[C@@H](CO)O2)cc1Br | 268.8
Cc1cn([C@H]2C[C@H](O)[C@@H](CO)O2)c(=O)[nH]c1=O | 283.12
O=c1[nH]c(=O)n([C@@H]2O[C@H](CO)[C@@H](O)[C@H]2O)cc1Br | 307.11
O=c1[nH]c(=O)n([C@H]2C[C@H](O)[C@@H](CO)O2)cc1I | 292.15
O=c1ccn([C@H]2C[C@H](O)[C@@H](CO)O2)c(=O)[nH]1 | 271.65
O=c1[nH]c(=O)n([C@@H]2O[C@H](CO)[C@@H](O)[C@H]2O)cc1I | 339.57

---

Test: molar heat capacity at constant pressure
Details: 323.15 K; 101.33 kPa; Crystal; Large sample (1 g) DSC
reported endpoint: molar heat capacity at constant pressure (J/K/mol)

compound string | molar heat capacity at constant pressure [J/K/mol]
O=c1[nH]c(=O)n([C@@H]2O[C@H](CO)[C@@H](O)[C@H]2O)cc1Br | 308.05
Cc1cn([C@H]2C[C@H](O)[C@@H](CO)O2)c(=O)[nH]c1=O | 287.4
O=c1ccn([C@H]2C[C@H](O)[C@@H](CO)O2)c(=O)[nH]1 | 277.14
O=c1[nH]c(=O)n([C@H]2C[C@H](O)[C@@H](CO)O2)cc1Br | 274.23
O=c1[nH]c(=O)n([C@@H]2O[C@H](CO)[C@@H](O)[C@H]2O)cc1I | 341
O=c1[nH]c(=O)n([C@H]2C[C@H](O)[C@@H](CO)O2)cc1I | 296.69

---

Test: molar heat capacity at constant pressure
Details: 318.15 K; 101.33 kPa; Crystal; Large sample (1 g) DSC
reported endpoint: molar heat capacity at constant pressure (J/K/mol)

compound string | molar heat capacity at constant pressure / J/K/mol
Cc1cn([C@H]2C[C@H](O)[C@@H](CO)O2)c(=O)[nH]c1=O | 285.25
O=c1[nH]c(=O)n([C@@H]2O[C@H](CO)[C@@H](O)[C@H]2O)cc1Br | 307.58
O=c1[nH]c(=O)n([C@H]2C[C@H](O)[C@@H](CO)O2)cc1Br | 271.51
O=c1[nH]c(=O)n([C@H]2C[C@H](O)[C@@H](CO)O2)cc1I | 294.43
O=c1[nH]c(=O)n([C@@H]2O[C@H](CO)[C@@H](O)[C@H]2O)cc1I | 340.29
O=c1ccn([C@H]2C[C@H](O)[C@@H](CO)O2)c(=O)[nH]1 | 274.39

---

Experiment: molar heat capacity at constant pressure
Settings: 368.15 K; 101.33 kPa; Crystal; Large sample (1 g) DSC
reported endpoint: molar heat capacity at constant pressure (J/K/mol)

molecule | reported endpoint | measured result
Cc1cn([C@H]2C[C@H](O)[C@@H](CO)O2)c(=O)[nH]c1=O [thymidine] | molar heat capacity at constant pressure | 306.65
O=c1[nH]c(=O)n([C@@H]2O[C@H](CO)[C@@H](O)[C@H]2O)cc1Br [5-bromouridine] | molar heat capacity at constant pressure | 312.29
O=c1[nH]c(=O)n([C@H]2C[C@H](O)[C@@H](CO)O2)cc1Br [5-bromo-2'-deoxyuridine] | molar heat capacity at constant pressure | 298.66
O=c1[nH]c(=O)n([C@@H]2O[C@H](CO)[C@@H](O)[C@H]2O)cc1I [2,4-dihdroxy-5-iodo-1-β-D-ribofurnosylpyrimidine] | molar heat capacity at constant pressure | 347.44
O=c1[nH]c(=O)n([C@H]2C[C@H](O)[C@@H](CO)O2)cc1I [5-iodo-2'-deoxyuridine] | molar heat capacity at constant pressure | 317.09
O=c1ccn([C@H]2C[C@H](O)[C@@H](CO)O2)c(=O)[nH]1 [2'-deoxyuridine] | molar heat capacity at constant pressure | 301.84

---

Assay: molar heat capacity at constant pressure
Conditions: 343.15 K; 101.33 kPa; Crystal; Large sample (1 g) DSC
reported endpoint: molar heat capacity at constant pressure (J/K/mol)

compound | reported endpoint | measured result
O=c1[nH]c(=O)n([C@@H]2O[C@H](CO)[C@@H](O)[C@H]2O)cc1I [2,4-dihdroxy-5-iodo-1-β-D-ribofurnosylpyrimidine] | molar heat capacity at constant pressure | 343.86
O=c1ccn([C@H]2C[C@H](O)[C@@H](CO)O2)c(=O)[nH]1 [2'-deoxyuridine] | molar heat capacity at constant pressure | 288.12
O=c1[nH]c(=O)n([C@H]2C[C@H](O)[C@@H](CO)O2)cc1Br [5-bromo-2'-deoxyuridine] | molar heat capacity at constant pressure | 285.09
O=c1[nH]c(=O)n([C@@H]2O[C@H](CO)[C@@H](O)[C@H]2O)cc1Br [5-bromouridine] | molar heat capacity at constant pressure | 309.94
O=c1[nH]c(=O)n([C@H]2C[C@H](O)[C@@H](CO)O2)cc1I [5-iodo-2'-deoxyuridine] | molar heat capacity at constant pressure | 305.76
Cc1cn([C@H]2C[C@H](O)[C@@H](CO)O2)c(=O)[nH]c1=O [thymidine] | molar heat capacity at constant pressure | 295.95
